All values here come from the supplement of paper PMC9170038.

Kindly supply the reported apparent KD of K4 kissing-loop reporter values for the records listed here.
Test system: K4 kissing-loop RNA reporter;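 also: bound reporter read as fluorescence of individual clusters on recovered sequencing chips by microscopy, with normalized cluster intensities fitted with a binding model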
Experiment: apparent KD of K4 kissing-loop reporter; higher = weaker reporter binding
Conditions: Eterna round: R107; input ligand: tryptophan 2.4 mM
Answers are plain numbers, in nM.

Solved cases below.
| PRIMARY_SEQUENCE | apparent KD of K4 kissing-loop reporter [nM] |
| --- | --- |
| UGAUACCAGACGGCCGCCACUUCUGCAAGUCAAAGACUUGCUAAAGGAAUCGUCCAGUGAUGUUGGAGGACCGGGUCUGGUAUCU [FiskerMod 1 - Jieux - Exclusion - Tryptophan B] | 772 |
| AGGUCAGCAGGAAGGAGCGCCCUGACAGGUUGCUGCCGUGGGCAGUGAUGUUGCUCAGUCCGGCAGGUAGGUCGCCUGCUGACCU | 156 |
| CGCAGUGAUGUUGCGAACAUAAUGCAUUCAGAGGAUAUUCGUUUGGGAAGAAGGCUGAAUCGUUUUUCGAGUGAUGUUUGAGGAA [Same State FMN A GF 18] | 94.6 |
| UGUCAUUGGUCUGAUACCAGAAGAUAUUCUGGAGUGAUGUUCCAAGUACGACAAAGUCGCUUCCCUUGGCAGCAGACCGAUGACU [TheoBS 20 #SwitchBubble 13 #StaticStem] | 690 |
| CCCUCACGAGUGAUGUUCGUAGGGUACAGUCAGGAUAUCAUGCGGUUGAGAAGGGACAGAGAAGGCGGCCACGGGUUGCUUAUCU [Ussoat] | 308 |

Then there is this sequence:
The sequence CCCUAAAUAUGCAGUGAUGUUGCAACUGAUACCAGUAUCGAAAGAUACCCUUGGCAGCGGAAAACCGCUACGUAAUUUAAUAGGG [Ex Theophylline A K4 20] showed apparent KD of K4 kissing-loop reporter equal to 285
